Values compiled from the Human Domainome abundance scans (Beltran et al. 2025).

Entries and their measured abundance fitness follow.
B1: Tudor domain-containing protein 3, residues 554 to 611; numbered along this chain, Q9H7E2 (parent)
chain: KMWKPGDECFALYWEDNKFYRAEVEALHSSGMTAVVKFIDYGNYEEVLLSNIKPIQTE

Variants of: B1
Test: abundance fitness (aPCA) (normalised: wild type 0, dead -1); higher = more abundant; growth selection in yeast, the domain comes from the species named
Conditions: Homo sapiens
Response field accepts a number only; no unit should be typed.

L12Q :: -0.252

// abundance fitness value for P5I : -0.141

// abundance fitness value for I55M : -0.096

// abundance fitness value for K53C : -0.238

// abundance fitness value for A34Y : -0.897
